Test system: P388 leukemia ip, CD2F1 mice, survival T/C
Experiment: NCI In Vivo Anticancer Drug Screen. Data for tumor model P388 Leukemia (intraperitoneal) in CD2F1 (CDF1) mice
Conditions: endpoint: median survival time; dose: 12.5 mg/kg/injection; schedule: Q01DX005 (ip); vehicle: Klucel (hydroxypropylcellulose) (HPC); higher = longer survival
Inconclusive results and toxic doses are left out.
Quantity: T/C

Record excerpt, results attached:
Compound: Cc1ccc(S(=O)C2=CCCO2)cc1 (stereo unspecified)
Assay System: P388 leukemia ip, CD2F1 mice, survival T/C
T/C: 100 % of control

Compound: CC1C2CCC3C4CC=C5CC(N(C)C)CCC5(C)C4CCC32CN1C (stereo unspecified)
Assay System: P388 leukemia ip, CD2F1 mice, survival T/C
T/C: 105 % of control

Compound: O=C1c2ccccc2C(=O)c2c(Nc3cc4c5c(ccc6c7ccc8c9c(cc(Nc%10cccc%11c%10C(=O)c%10ccccc%10C%11=O)c(c3c56)c97)-c3ccccc3C8=O)C(=O)c3ccccc3-4)cccc21
Assay System: P388 leukemia ip, CD2F1 mice, survival T/C
T/C: 106 % of control

Compound: COc1ccc(-c2cc(=O)c3cccc(CC(=O)O)c3o2)cc1
Assay System: P388 leukemia ip, CD2F1 mice, survival T/C
T/C: 105 % of control

Compound: CC(C)NC(=O)OCc1ncn(-c2ccccc2)c1COC(=O)NC(C)C
Assay System: P388 leukemia ip, CD2F1 mice, survival T/C
T/C: 103 % of control

Compound: NNP(=S)(NN)Oc1ccccc1
Assay System: P388 leukemia ip, CD2F1 mice, survival T/C
T/C: 114 % of control

Compound: Oc1ccc(CCC2CCC(c3ccc(O)cc3)CO2)cc1 (stereo unspecified)
Assay System: P388 leukemia ip, CD2F1 mice, survival T/C
T/C: 97 % of control

Compound: CCCCN(CCCC)C(=N)/C=C/c1ccccc1
Assay System: P388 leukemia ip, CD2F1 mice, survival T/C
T/C: 103 % of control

Compound: CC[OH+]CC[OH+]CC[OH+]C1CCCC2CCC[N-]C21.[Cl][Cu][Cl] (stereo unspecified)
Assay System: P388 leukemia ip, CD2F1 mice, survival T/C
T/C: 92 % of control

Compound: NC1=NCc2c(sc3c2CCCC3)N1
Assay System: P388 leukemia ip, CD2F1 mice, survival T/C
T/C: 104 % of control

# input Param item = "CNc1[nH]c(=O)[nH]c(=O)c1[N+](=O)[O-]" ; retrieve measured T/C.
# output 100 % of control

# input Given the compound "COc1cc([C@H]2OC[C@H]3[C@@H]2CO[C@@H]3c2ccc(OC(C)=O)c(OC)c2)ccc1OC(C)=O" , what is its reported T/C?
# output 96 % of control

# input Item "[CH3][Sn]([CH3])([n]1ccnc1)[n]1ccnc1" has what recorded T/C?
# output 119 % of control

# input Please report the recorded T/C for "CO/N=C(\N)NC(=O)Cc1c(Cl)cccc1Cl" .
# output 98 % of control

# input Look up T/C for this compound: "CC(=O)C1=CC[C@H]2[C@@H]3C=CC4=CC(=O)CC[C@]4(C)[C@H]3C[C@@H](O)[C@]12C"
# output 99 % of control

# input Record request: T/C value, item COc1cc2c(c(C(C)(C)C)c1)OC1(O)C2=CC(=O)C=C1C(C)(C)C (stereo unspecified)
# output 120 % of control
